# credit: the RNAGym collection of RNA variant scans (doi:10.7554/elife.90254)

B1: LINE1-full (parent)
chain: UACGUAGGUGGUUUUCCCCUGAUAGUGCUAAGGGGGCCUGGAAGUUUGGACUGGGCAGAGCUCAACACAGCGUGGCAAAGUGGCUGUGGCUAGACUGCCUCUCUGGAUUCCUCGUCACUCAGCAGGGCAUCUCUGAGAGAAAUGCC

# Variants of: B1
# assay_procedure: self-cleavage, relative activity (ratio to wild type); higher = more cleavage; in vitro, sequencing; the parent is a self-cleaving ribozyme
measurement_type: self-cleavage

Solved entries:
# mutant_label, measurement_type, meas_value
data = [
    ("U26C A30G", "self-cleavage", 1.05),
    ("U62A A107G", "self-cleavage", 0.06),
    ("C68A U87A", "self-cleavage", 0.01),
    ("U9A G27A", "self-cleavage", 0.81),
    ("U85C A94U", "self-cleavage", 0.14),
    ("G55U A117G", "self-cleavage", 0.3),
    ("G35U A69G", "self-cleavage", 0.6),
    ("A77G G80A", "self-cleavage", 2.17),
    ("C90U A141G", "self-cleavage", 0.03),
    ("A64G A79U", "self-cleavage", 0.34),
]

Which self-cleavage reading was recorded for the variant C71U U81C ? 0.74

Which self-cleavage reading was recorded for the variant U96C G135A ? 0.24

Which self-cleavage reading was recorded for the variant C113A U134C ? 0.33

Which self-cleavage reading was recorded for the variant A121G G127A ? 1.74
